Would you kindly list glycan array binding signal (z-score) for each of these binders?
- system tested: Neu5Gc(a2-6)Gal(b1-4)GlcNAc
- experiment notes: glycan array binding signal (z-score within array); higher = stronger binding
- assay conditions: glycan notation: IUPAC condensed, linker removed
Many of the other results were omitted from the sample, so the strongest signals are more common in it than they were.
The answer should be written as a number, with no unit following it.

q: Can you share its glycan array binding signal (z-score)? I mean this binder: GNAT (Pseudomonas aeruginosa), Q9HV14 (protein) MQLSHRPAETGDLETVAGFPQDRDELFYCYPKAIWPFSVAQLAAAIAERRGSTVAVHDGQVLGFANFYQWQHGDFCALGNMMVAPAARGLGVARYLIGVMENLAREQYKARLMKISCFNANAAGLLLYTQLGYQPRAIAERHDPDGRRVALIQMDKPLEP
a: -0.437

q: Now the same for CV-2L (Chromobacterium violaceum), Q7NX84 (protein) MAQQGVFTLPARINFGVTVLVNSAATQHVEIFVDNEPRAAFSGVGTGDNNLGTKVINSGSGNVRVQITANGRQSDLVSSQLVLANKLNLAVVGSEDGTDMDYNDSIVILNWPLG
a: -0.326
